FYI, the data here is from ChEMBL document CHEMBL5325437.

- assay_target: Serine/threonine-protein kinase PAK 1 (Homo sapiens)
- test_summary: Binding affinity to recombinant PAK1 (unknown origin) assessed as stabilization by measuring change in melting temperature at 10 uM by SYPRO orange dye based differential scanning fluorimetry assay
value_type: ΔTm (°C)

structure_smiles	assay_target	value_type	unit_abbreviation	observed_value
CNc1ncc2cc(-c3cc(Br)ccc3Cl)c(=O)n(C[C@H]3OC[C@H](N)CO3)c2n1	Serine/threonine-protein kinase PAK 1 (Homo sapiens)	ΔTm	°C	0.6

A: CNc1ncc2cc(-c3cc(F)c(-c4cccc(C)n4)cc3F)c(=O)n(CCCCN)c2n1
B: CNc1ncc2cc(-c3cc(Cl)ccc3Cl)c(=O)n(CCCCN)c2n1
Input line: I need your help: which of the pair A , B has higher ΔTm? Could you answer with the label of the item you picked?
Output line: A
(A: 3.6 °C, B: 0.7 °C)

* * *

- assay_target: Serine/threonine-protein kinase 26 (Homo sapiens)
- test_summary: Binding affinity to recombinant MST4 (unknown origin) assessed as stabilization by measuring change in melting temperature at 10 uM by SYPRO orange dye based differential scanning fluorimetry assay
value_type: ΔTm (°C)

Consider the worked cases shown below.
structure_smiles	value_type	observed_value
CNc1ncc2cc(-c3cc(F)ccc3F)c(=O)n(CCCCN)c2n1	ΔTm	0.9
CNc1ncc2cc(-c3ccc(-c4ncccc4F)cc3Cl)c(=O)n(C[C@H]3OC[C@H](N)CO3)c2n1	ΔTm	2.7
CNc1ncc2cc(-c3cc(Br)ccc3Cl)c(=O)n(CCCCN)c2n1	ΔTm	2.2
CNc1ncc2cc(-c3cc(C(F)(F)F)ccc3Cl)c(=O)n(CCCCN)c2n1	ΔTm	0.4
CNc1ncc2cc(-c3cc(F)c(-c4cccc(C)n4)cc3F)c(=O)n(CCCCN)c2n1	ΔTm	7.6

P: CNc1ncc2cc(-c3cc(Cl)ccc3Br)c(=O)n(CCCCN)c2n1
Q: CNc1ncc2cc(-c3ccccc3Cl)c(=O)n(CCCCN)c2n1
Input line: Which has the smaller recorded ΔTm, P or Q ? Identify your pick by its label.
Output line: P
(P: 1.8 °C, Q: 2.6 °C)

* * *

- assay_target: Ephrin type-B receptor 3 (Homo sapiens)
- Sequence (P54753 whole entry): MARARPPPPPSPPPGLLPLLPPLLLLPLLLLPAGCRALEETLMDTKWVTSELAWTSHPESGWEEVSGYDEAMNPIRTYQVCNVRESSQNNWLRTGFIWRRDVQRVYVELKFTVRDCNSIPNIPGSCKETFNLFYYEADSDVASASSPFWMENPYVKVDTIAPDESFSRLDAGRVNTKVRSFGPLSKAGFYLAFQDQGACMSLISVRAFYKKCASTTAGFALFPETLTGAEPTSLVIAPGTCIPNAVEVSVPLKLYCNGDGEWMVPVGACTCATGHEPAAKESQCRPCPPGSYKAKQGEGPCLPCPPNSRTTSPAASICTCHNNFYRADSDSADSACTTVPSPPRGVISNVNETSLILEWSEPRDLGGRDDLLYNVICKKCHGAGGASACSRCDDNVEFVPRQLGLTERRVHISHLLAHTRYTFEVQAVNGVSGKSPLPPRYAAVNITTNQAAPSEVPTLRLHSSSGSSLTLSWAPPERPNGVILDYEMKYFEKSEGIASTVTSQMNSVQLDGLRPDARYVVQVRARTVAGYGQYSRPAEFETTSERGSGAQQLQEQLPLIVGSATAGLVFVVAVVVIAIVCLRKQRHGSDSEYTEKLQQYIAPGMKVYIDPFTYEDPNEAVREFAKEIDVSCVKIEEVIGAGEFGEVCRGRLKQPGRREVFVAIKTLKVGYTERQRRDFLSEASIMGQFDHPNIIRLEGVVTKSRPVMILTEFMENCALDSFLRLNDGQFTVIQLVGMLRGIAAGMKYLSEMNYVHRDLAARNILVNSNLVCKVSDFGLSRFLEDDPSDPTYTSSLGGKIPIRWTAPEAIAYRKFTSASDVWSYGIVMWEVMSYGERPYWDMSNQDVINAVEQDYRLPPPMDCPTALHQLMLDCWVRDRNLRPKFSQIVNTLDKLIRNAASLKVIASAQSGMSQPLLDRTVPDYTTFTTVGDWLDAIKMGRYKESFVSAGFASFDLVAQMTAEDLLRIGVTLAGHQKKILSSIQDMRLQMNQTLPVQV
- test_summary: Inhibition of full length NanoLuc fused EPHB3 (unknown origin) transfected in HEK293T cells using NanoBRET NanoGlo substrate incubated for 2 hrs in presence of tracer by NanoBRET assay
value_type: IC50 (µM)
Hi! Could you send only the number? It should be in µM, unit omitted.

Input line: Provide only the value of recorded IC50 for "CNc1ncc2cc(-c3cc(F)ccc3F)c(=O)n(CCCCN)c2n1"
Output line: 18.3
